biological target: zGlyRα3/ßa (Danio rerio, UniProt A0A8M1PA31+A0ACM8PZL4); construct: full-length cDNAs in pCS2+, cRNAs co-injected 1:1 in Xenopus laevis oocytes; heteropentamer; experiment: two-electrode voltage clamp, Xenopus oocytes
PARAMETER_MEASURED: pIC50
// pIC50 is dimensionless: -log10 of concentration (M)

Lab note: O=C1C[C@@H]2OCC=C3CN4CC[C@]56c7ccccc7N1[C@H]5[C@H]2[C@H]3C[C@H]46 gave pIC50 of 7.08

---

molecular target: zGlyRα4b/ßa (Danio rerio, UniProt A0A8M1P2L1+A0ACM8PZL4); construct: full-length cDNAs in pCS2+, cRNAs co-injected 1:1 in Xenopus laevis oocytes; heteropentamer; experiment: two-electrode voltage clamp, Xenopus oocytes
PARAMETER_MEASURED: pEC50
// pEC50 is dimensionless: -log10 of concentration (M)

Lab note: NCC(=O)O gave pEC50 of 3.63

---

molecular target: zGlyRα4a/ßb (Danio rerio, UniProt F1RDZ6+Q6DC22); construct: full-length cDNAs in pCS2+, cRNAs co-injected 1:1 in Xenopus laevis oocytes; heteropentamer; assay: two-electrode voltage clamp, Xenopus oocytes
PARAMETER_MEASURED: pEC50
// pEC50 is dimensionless: -log10 of concentration (M)

Lab note: NCC(=O)O [glycine] gave pEC50 of 3.39

---

target: zGlyRα4b/ßb (Danio rerio, UniProt A0A8M1P2L1+Q6DC22); construct: full-length cDNAs in pCS2+, cRNAs co-injected 1:1 in Xenopus laevis oocytes; heteropentamer; experiment: two-electrode voltage clamp, Xenopus oocytes
Sequence (A0A8M1P2L1 25-492, one chain of several): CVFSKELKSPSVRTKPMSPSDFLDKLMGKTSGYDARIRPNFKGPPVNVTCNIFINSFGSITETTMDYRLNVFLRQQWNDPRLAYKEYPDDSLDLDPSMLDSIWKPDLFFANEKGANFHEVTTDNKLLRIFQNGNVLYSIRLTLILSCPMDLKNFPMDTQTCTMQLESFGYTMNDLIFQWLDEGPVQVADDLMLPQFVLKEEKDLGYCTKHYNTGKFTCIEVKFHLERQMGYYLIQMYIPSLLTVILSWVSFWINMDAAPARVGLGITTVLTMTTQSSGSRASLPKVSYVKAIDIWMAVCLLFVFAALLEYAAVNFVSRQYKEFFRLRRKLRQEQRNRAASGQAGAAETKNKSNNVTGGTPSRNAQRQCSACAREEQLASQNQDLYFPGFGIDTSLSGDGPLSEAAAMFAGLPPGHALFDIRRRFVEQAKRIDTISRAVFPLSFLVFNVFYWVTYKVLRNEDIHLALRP
PARAMETER_MEASURED: EC50 (µM)
Numbers only; they are read as µM.

Lab note: NCC(=O)O [glycine] gave EC50 of 221

---

target: zGlyRα4b/ßa (Danio rerio, UniProt A0A8M1P2L1+A0ACM8PZL4); construct: gene glra4b; full-length cDNAs in pCS2+, cRNAs co-injected 1:1 in Xenopus laevis oocytes; heteropentamer; test: two-electrode voltage clamp, Xenopus oocytes; type: cell-based
PARAMETER_MEASURED: pIC50
// pIC50 is dimensionless: -log10 of concentration (M)

Lab note: O=C1C[C@@H]2OCC=C3CN4CC[C@]56c7ccccc7N1[C@H]5[C@H]2[C@H]3C[C@H]46 [strychnine] gave pIC50 of 7.09

---

biological target: zGlyRα2 homomer (Danio rerio); construct: full-length cDNA in pCS2+, Kozak added; cRNA in Xenopus laevis oocytes; homopentamer; not the earlier 'zGlyRα2' (now α4a); assay: two-electrode voltage clamp, Xenopus oocytes
PARAMETER_MEASURED: IC50 (nM)
Numbers only; they are read as nM.

Lab note: O=C1C[C@@H]2OCC=C3CN4CC[C@]56c7ccccc7N1[C@H]5[C@H]2[C@H]3C[C@H]46 gave IC50 of 212

---

biological target: zGlyRα2/ßb (Danio rerio, UniProt F1R8P4+Q6DC22); construct: full-length cDNAs in pCS2+, cRNAs co-injected 1:1 in Xenopus laevis oocytes; heteropentamer; test: two-electrode voltage clamp, Xenopus oocytes
PARAMETER_MEASURED: EC50 (µM)
Numbers only; they are read as µM.

Lab note: NCC(=O)O [glycine] gave EC50 of 343

---

target: zGlyRα4a homomer (Danio rerio); construct: full-length cDNA in pCS2+, Kozak added; cRNA in Xenopus laevis oocytes; homopentamer; experiment: two-electrode voltage clamp, Xenopus oocytes
PARAMETER_MEASURED: IC50 (nM)
Numbers only; they are read as nM.

The reported IC50 value, zGlyRα4a homomer (Danio rerio), for O=C1C[C@@H]2OCC=C3CN4CC[C@]56c7ccccc7N1[C@H]5[C@H]2[C@H]3C[C@H]46 reads 55

---

target: zGlyRα3/ßb (Danio rerio, UniProt A0A8M1PA31+Q6DC22); construct: full-length cDNAs in pCS2+, cRNAs co-injected 1:1 in Xenopus laevis oocytes; heteropentamer; assay: two-electrode voltage clamp, Xenopus oocytes
PARAMETER_MEASURED: pEC50
// pEC50 is dimensionless: -log10 of concentration (M)

Lab note: NCC(=O)O [glycine] gave pEC50 of 3.59

---

biological target: zGlyRα4a/ßa (Danio rerio, UniProt A0ACM8PZL4+F1RDZ6); construct: full-length cDNAs in pCS2+, cRNAs co-injected 1:1 in Xenopus laevis oocytes; heteropentamer; assay: two-electrode voltage clamp, Xenopus oocytes
PARAMETER_MEASURED: pIC50
// pIC50 is dimensionless: -log10 of concentration (M)

Lab note: O=C1C[C@@H]2OCC=C3CN4CC[C@]56c7ccccc7N1[C@H]5[C@H]2[C@H]3C[C@H]46 gave pIC50 of 7.37

---

biological target: zGlyRα2/ßa (Danio rerio, UniProt A0ACM8PZL4+F1R8P4); construct: full-length cDNAs in pCS2+, cRNAs co-injected 1:1 in Xenopus laevis oocytes; heteropentamer; experiment: two-electrode voltage clamp, Xenopus oocytes
Sequence (F1R8P4 28-449): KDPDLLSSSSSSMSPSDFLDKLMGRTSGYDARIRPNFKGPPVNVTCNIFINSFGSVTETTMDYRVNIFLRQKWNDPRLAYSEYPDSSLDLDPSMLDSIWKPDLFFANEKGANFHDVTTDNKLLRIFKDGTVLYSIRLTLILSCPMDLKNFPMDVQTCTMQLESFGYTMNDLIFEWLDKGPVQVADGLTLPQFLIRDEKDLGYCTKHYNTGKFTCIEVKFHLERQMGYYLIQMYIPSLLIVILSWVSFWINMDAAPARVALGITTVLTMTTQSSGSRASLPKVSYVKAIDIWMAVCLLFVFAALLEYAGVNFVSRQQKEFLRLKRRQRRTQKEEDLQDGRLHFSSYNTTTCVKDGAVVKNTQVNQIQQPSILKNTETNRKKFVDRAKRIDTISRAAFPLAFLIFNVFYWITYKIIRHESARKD
Sequence (A0ACM8PZL4 23-498): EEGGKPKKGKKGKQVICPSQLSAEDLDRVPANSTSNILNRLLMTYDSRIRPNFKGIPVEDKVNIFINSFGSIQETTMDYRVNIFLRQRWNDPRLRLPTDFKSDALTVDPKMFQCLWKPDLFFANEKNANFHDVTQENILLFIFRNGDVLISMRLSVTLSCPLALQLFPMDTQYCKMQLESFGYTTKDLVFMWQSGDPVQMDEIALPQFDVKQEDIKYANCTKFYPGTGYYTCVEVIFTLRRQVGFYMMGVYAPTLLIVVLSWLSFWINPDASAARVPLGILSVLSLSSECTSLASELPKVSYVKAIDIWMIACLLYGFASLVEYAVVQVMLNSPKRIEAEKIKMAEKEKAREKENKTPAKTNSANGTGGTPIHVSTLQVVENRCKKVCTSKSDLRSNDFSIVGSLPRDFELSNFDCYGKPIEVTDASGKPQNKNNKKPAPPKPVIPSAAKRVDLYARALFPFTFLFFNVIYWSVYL
PARAMETER_MEASURED: pEC50
// pEC50 is dimensionless: -log10 of concentration (M)

Lab note: NCC(=O)O gave pEC50 of 3.51

---

Target: zGlyRα3 homomer (Danio rerio)
Construct: full-length cDNA in pCS2+, Kozak added; cRNA in Xenopus laevis oocytes; homopentamer
Sequence (A0A8M1PA31 28-450): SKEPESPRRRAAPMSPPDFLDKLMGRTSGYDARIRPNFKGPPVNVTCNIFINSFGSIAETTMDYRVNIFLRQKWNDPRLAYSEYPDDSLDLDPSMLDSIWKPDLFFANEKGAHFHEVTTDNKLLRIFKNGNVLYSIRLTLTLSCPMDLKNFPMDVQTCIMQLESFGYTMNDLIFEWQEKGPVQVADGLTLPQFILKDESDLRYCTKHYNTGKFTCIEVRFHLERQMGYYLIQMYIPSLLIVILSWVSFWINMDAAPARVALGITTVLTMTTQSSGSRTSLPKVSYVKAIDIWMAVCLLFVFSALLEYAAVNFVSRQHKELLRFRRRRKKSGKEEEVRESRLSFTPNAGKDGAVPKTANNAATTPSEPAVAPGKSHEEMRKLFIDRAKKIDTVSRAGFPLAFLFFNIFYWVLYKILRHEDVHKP
Assay: two-electrode voltage clamp, Xenopus oocytes
Description: two-electrode voltage clamp, Xenopus oocytes on zGlyRα3 homomer
PARAMETER_MEASURED: pEC50
// pEC50 is dimensionless: -log10 of concentration (M)

The reported pEC50 value, zGlyRα3 homomer (Danio rerio), for NCC(=O)O reads 3.90

---

target: zGlyRα4a/ßa (Danio rerio, UniProt A0ACM8PZL4+F1RDZ6); construct: full-length cDNAs in pCS2+, cRNAs co-injected 1:1 in Xenopus laevis oocytes; heteropentamer; assay: two-electrode voltage clamp, Xenopus oocytes
PARAMETER_MEASURED: pEC50
// pEC50 is dimensionless: -log10 of concentration (M)

The reported pEC50 value, zGlyRα4a/ßa (Danio rerio, UniProt A0ACM8PZL4+F1RDZ6), for NCC(=O)O [glycine] reads 3.34

---

Biological target: zGlyRα4a homomer (Danio rerio)
Construct: full-length cDNA in pCS2+, Kozak added; cRNA in Xenopus laevis oocytes; homopentamer
Sequence (F1RDZ6 28-457): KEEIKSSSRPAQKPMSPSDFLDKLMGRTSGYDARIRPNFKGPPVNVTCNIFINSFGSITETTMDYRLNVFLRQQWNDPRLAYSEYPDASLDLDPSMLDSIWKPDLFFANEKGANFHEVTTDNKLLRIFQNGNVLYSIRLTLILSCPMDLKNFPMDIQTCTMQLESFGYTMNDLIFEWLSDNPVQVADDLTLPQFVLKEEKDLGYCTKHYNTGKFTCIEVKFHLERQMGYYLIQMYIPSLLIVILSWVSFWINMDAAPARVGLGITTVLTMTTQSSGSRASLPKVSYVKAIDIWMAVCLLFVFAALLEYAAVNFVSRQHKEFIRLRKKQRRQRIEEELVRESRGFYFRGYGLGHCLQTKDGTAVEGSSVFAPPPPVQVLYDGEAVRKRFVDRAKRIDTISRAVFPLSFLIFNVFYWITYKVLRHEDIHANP
Test: two-electrode voltage clamp, Xenopus oocytes
Description: two-electrode voltage clamp, Xenopus oocytes on zGlyRα4a homomer
PARAMETER_MEASURED: EC50 (µM)
Numbers only; they are read as µM.

The reported EC50 value, zGlyRα4a homomer (Danio rerio), for NCC(=O)O reads 200

---

Biological target: zGlyRα4a/ßb (Danio rerio, UniProt F1RDZ6+Q6DC22)
Construct: full-length cDNAs in pCS2+, cRNAs co-injected 1:1 in Xenopus laevis oocytes; heteropentamer
Sequence (F1RDZ6 28-457): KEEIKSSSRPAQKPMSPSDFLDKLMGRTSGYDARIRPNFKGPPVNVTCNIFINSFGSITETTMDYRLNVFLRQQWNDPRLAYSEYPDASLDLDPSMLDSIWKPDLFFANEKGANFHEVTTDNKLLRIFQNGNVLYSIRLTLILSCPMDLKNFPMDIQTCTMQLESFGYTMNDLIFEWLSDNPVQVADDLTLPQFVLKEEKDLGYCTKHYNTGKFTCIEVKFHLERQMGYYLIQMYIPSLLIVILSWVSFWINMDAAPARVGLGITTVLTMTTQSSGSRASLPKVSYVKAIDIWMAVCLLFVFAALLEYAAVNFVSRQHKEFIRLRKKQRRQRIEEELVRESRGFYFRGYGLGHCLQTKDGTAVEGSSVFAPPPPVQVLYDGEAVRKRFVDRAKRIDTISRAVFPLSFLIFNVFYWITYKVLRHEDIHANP
Sequence (Q6DC22 23-494): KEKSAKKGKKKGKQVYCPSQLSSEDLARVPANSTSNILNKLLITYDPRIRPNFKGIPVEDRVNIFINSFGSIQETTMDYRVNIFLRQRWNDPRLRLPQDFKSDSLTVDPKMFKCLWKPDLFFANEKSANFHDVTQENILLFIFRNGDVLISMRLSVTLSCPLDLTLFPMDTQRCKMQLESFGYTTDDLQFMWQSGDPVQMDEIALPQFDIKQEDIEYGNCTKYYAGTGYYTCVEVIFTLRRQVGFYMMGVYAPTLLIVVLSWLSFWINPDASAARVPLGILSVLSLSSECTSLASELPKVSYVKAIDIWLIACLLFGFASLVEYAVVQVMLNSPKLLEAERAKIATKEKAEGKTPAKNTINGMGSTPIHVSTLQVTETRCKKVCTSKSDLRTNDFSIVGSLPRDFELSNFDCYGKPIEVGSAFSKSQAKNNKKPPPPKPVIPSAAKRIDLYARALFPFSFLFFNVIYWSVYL
Assay: two-electrode voltage clamp, Xenopus oocytes
PARAMETER_MEASURED: pIC50
// pIC50 is dimensionless: -log10 of concentration (M)

Lab note: O=C1C[C@@H]2OCC=C3CN4CC[C@]56c7ccccc7N1[C@H]5[C@H]2[C@H]3C[C@H]46 [strychnine] gave pIC50 of 7.74
